test system: BT-549 breast; test: NCI-60 one-dose screen, 48 h (100 = growth as untreated, 0 = no growth, -100 = all killed); settings: 10 µM unless noted
The panel holds about 83,000 compounds, 20% with a hit somewhere; the sample as a whole holds those more often. Active and inactive are the calls of the source. How the source made its calls: active means growth percent below 10; inactive means the rest.
MEASURE_NAME: growth

See these solved cases before continuing.
[
  {
    "COMPOUND": "Oc1cccc(Nc2nccc(-c3ccc4ccccc4c3)n2)c1",
    "TEST_RESULT": "41.3% (inactive)"
  },
  {
    "COMPOUND": "CN1CCN(Cc2ccc(NC(=O)c3cncc(C#Cc4c(N)ncc5ccc(C#N)cc45)c3)cc2C(F)(F)F)CC1",
    "TEST_RESULT": "92.3% (inactive)"
  },
  {
    "COMPOUND": "CCCCCCCCCCCCCCCC(=O)OCC1OC(n2cnc3c(=S)nc(N)[nH]c32)C(OC(=O)CCCCCCCCCCCCCCC)C1OC(=O)CCCCCCCCCCCCCCC (configuration not stated)",
    "TEST_RESULT": "53% (inactive)"
  },
  {
    "COMPOUND": "Cn1c2ccccc2c2c3c(c4c5ccccc5n(CCCCCC#N)c4c21)C(=O)N(O)C3=O",
    "TEST_RESULT": "18.5% (inactive)"
  },
  {
    "COMPOUND": "O=S(=O)(NCCCNc1cc(-c2cn(-c3ccccc3)nc2-c2ccccc2)ccn1)c1ccc(C(F)(F)F)cc1",
    "TEST_RESULT": "71.2% (inactive)"
  }
]

Data point: COCCCN=C(N)c1ccc(NC(=O)c2ccc(C(=O)Nc3ccc(C(N)=NCCCOC)cc3)cc2)cc1 ; growth = 78.6% (inactive)

Data point: O=C(/C=C/c1cccc(Br)c1)c1ccccc1 ; growth = 76.6% (inactive)

Data point: CSc1[nH]c2ncnc(N)c2c1C#N ; growth = 85.9% (inactive)

Data point: O=c1c2c3c(sc2n2c(CCl)nnc2n1Cc1ccccc1)CCCC3 ; growth = -93.5% (active)

Data point: COc1cc(NCCCCN=C(N)NC(N)=NC(C)C)c2ncccc2c1 ; growth = 54.8% (inactive)

* * *

tested on: HCT-116 colon; assay: NCI-60 one-dose screen, 48 h; settings: 10 µM unless noted
About 83,000 compounds went through this panel and 20% of them were active in at least one assay; those are over-represented in the sample as a whole. Activity calls are given as the source filed them. The calls were made as follows: active = growth percent below 10; inactive = the rest.
Lab note: assign the record to one of true = active, false = inactive

Study these solved cases before continuing.
[
  {
    "COMPOUND": "CC/C=C\\C[C@H](O)C/C=C1/C(=O)C=C[C@@H]1C/C=C\\CCCC(=O)OC(C)C",
    "CLASS_LABEL": "true"
  },
  {
    "COMPOUND": "COc1ccc(C(=O)/C=C/c2c(Cl)c3c(c(OC)c2Cl)OCC(=O)N3)cc1",
    "CLASS_LABEL": "false"
  },
  {
    "COMPOUND": "CCCCCCCCCCCCCCCCCCNC(=O)[C@H]1CSC(c2ccc(OC)c(F)c2)N1 (stereo partly specified)",
    "CLASS_LABEL": "true"
  }
]

How was Cc1ccn2c(-c3csc(Nc4cccc(O)c4)n3)c(C)nc2c1 classified in this test? false

How was CN1CCN(Cc2ccc(NC(=O)c3cncc(C#Cc4cncc5nccnc45)c3)cc2C(F)(F)F)CC1 classified in this test? false

How was COc1cccc(/C=C\C(=O)c2ccccc2)c1 classified in this test? false

How was COc1nc2c(cc1S(=O)(=O)c1ccccc1)CCc1c-2cnn1Cc1ccccc1 classified in this test? false

How was O=C1C=CC(=O)c2c1nc1n2CCCC1 classified in this test? false

How was C/C(Cc1ccc(Cl)cc1)=C(\c1ccc(OCCN2CCCCCC2)cc1)c1ccc(OC(=O)Cc2ccccc2)cc1 classified in this test? false

How was O=C(COc1cccc(/C=C2/Oc3ccccc3C2=O)c1)Nc1nccs1 classified in this test? false

How was CC[C@]12C=CCN3CC[C@@]4(c5ccc(OC)cc5N(C)[C@H]4[C@@](O)(C(=O)OC)[C@@H]1OC(=O)CCC(=O)N[C@@H](Cc1c[nH]c4ccccc14)C(=O)OC)[C@@H]32 classified in this test? false

How was CCN(CC)C12CCCCC1(C)C(C#N)(C#N)C(C#N)=C(N)O2 (stereo unspecified) classified in this test? false

How was CC/C(Cc1ccccc1)=C(/c1ccc(O)cc1)c1ccc(OCCN2CCCC2)cc1 classified in this test? true

How was CCCCCCCCCC(=O)Oc1ccc(/C(=C(/C)c2ccccc2)c2ccc(OCCN3CCCC3)cc2)cc1 classified in this test? false

How was C(=N\Nc1nnn(Cc2ccccc2)n1)/c1ccccc1 classified in this test? false

How was O=C(Nc1nc(-c2ccccc2)cc(-c2ccc(Cl)cc2)n1)c1ccncc1 classified in this test? false
